tested on: Bacillus subtilis; experiment: Antimicrobial activity against Bacillus subtilis at 1 mg/ml after 24 hr by agar well diffusion method; type: functional; conditions: read-out: DIZ
property name: zone of inhibition at 1000 µg/mL (mm)
Quick reminder: number only, in mm, skip the unit.

| molecule | property name | value reported |
| --- | --- | --- |
| COc1cc([C@@H]2[C@H](Oc3ccc(Cl)cc3Cl)C(=O)N2c2sc3c(c2C#N)C=C(/C=C/c2c(C)nn(-c4ccccc4)c2Cl)CC3(C)C)cc(OC)c1OC | zone of inhibition at 1000 µg/mL | 11.6 |
| COc1ccc([C@@H]2[C@H](Oc3ccc(Cl)cc3Cl)C(=O)N2c2sc3c(c2C#N)C=C(/C=C/c2c(C)nn(-c4ccccc4)c2Cl)CC3(C)C)cc1 (relative stereo) | zone of inhibition at 1000 µg/mL | 12.5 |

Prompt: Which zone of inhibition at 1000 µg/mL value belongs to Cc1nn(-c2ccccc2)c(Cl)c1/C=C/C1=Cc2c(sc(N3C(=O)[C@@H](Oc4ccc(Cl)cc4Cl)[C@H]3c3ccccc3Cl)c2C#N)C(C)(C)C1 (relative stereo) ?
Completion: 18.7

Prompt: Tell me the measured zone of inhibition at 1000 µg/mL of Cc1nn(-c2ccccc2)c(Cl)c1/C=C/C1=Cc2c(sc(N3C(=O)[C@@H](Oc4ccc(Cl)cc4Cl)[C@H]3c3ccc(Cl)c(Cl)c3)c2C#N)C(C)(C)C1 (relative stereo) , please.
Completion: 11.2

Prompt: Need zone of inhibition at 1000 µg/mL, item `O=C(N[C@H](CO)[C@H](O)c1ccc([N+](=O)[O-])cc1)C(Cl)Cl`
Completion: 18.8

Prompt: I have this molecule here, Cc1nn(-c2ccccc2)c(Cl)c1/C=C/C1=Cc2c(sc(N3C(=O)[C@@H](Oc4ccc(Cl)cc4Cl)[C@H]3c3ccccc3)c2C#N)C(C)(C)C1 (relative stereo) , and I need its recorded zone of inhibition at 1000 µg/mL.
Completion: 11.7

Prompt: Name the recorded zone of inhibition at 1000 µg/mL for Cc1nn(-c2ccccc2)c(Cl)c1/C=C/C1=Cc2c(sc(N3C(=O)[C@@H](Oc4ccc(Cl)cc4Cl)[C@H]3c3ccc(Cl)cc3)c2C#N)C(C)(C)C1 (relative stereo) .
Completion: 12.4

FYI, the data here is from ChEMBL document CHEMBL3045239.
